Reference source for all entries: the supplement of paper PMC9170038

Test system: MS2 coat protein
Assay: apparent KD of MS2 coat protein; designed switch direction (-1 OFF switch, 1 ON switch): -1; higher = weaker reporter binding
Conditions: Eterna round: R95; input ligand: none
Rule: apparent KD of MS2 coat protein of 50 nM or more gives Fulfilled; anything lower gives Not fulfilled.

Worked set:
biosequence	class-assignment
AAGAAACAUGAGGAUCACCCAUGUGAGGAUAUGUAAAAGAAAAUAAAAUAAAUAAGAAACAGAAGGCACAAAGG [Mat - Mod of Hog D19] (puzzle: Exclusion 1)	Not fulfilled
AAGAAACAUGAGGAUCACCCAUGUGAGGAUAUGAGGAAGAAAAGAAAAGAAAGAAGACUCAGAAGGCACAAAGG [salish99-ex1_r3_073] (puzzle: Exclusion 1)	Fulfilled
AGAUGGCGAGGAUAUACAUGAGGAUCACCCAUGUGAGAUAAAAGAGUGAGGAAGAAAAGUAGAAGGCGCUGUCA [Mat - Exclusion 3 - Mod of Salish D16] (puzzle: Exclusion 3)	Fulfilled
AAACCUGCCCAUGACCGCAAGCUUUUUGCUUGUCUCACCACAUGAGGAUCACCCAUGUGACAUGGGCUCCUUAUAAA [Orvesovera] (puzzle: Sensor v3, turn-off variant 2)	Not fulfilled
AAGAAACAUGAGGAUCACCCAUGUGAGGAUAUGACUAAGAAAAGAAAAGAAAGAAGAGUCAGAAGGCACAAAGG [salish99-ex1_r3_068] (puzzle: Exclusion 1)	Fulfilled

Reported apparent KD of MS2 coat protein at or above 50 nM? GAAAAGGAAGGAUAUACGAAAAAAAAGGGUAGAAAAAAAACACAUGAGGAUCACCCAUGUAGAAGGUCCAAAAG [salish99_ex2_r3_092] (puzzle: Exclusion 2)
Fulfilled

Reported apparent KD of MS2 coat protein at or above 50 nM? UACUAUAAGGAGGAUAUCGUAUCGGAAACGAUACGAGAAGGCUUAACAUGAGGAUCACCCAUGUUCUUCAAUAU [Fiskers Ex 6 - 26] (puzzle: Exclusion 6)
Not fulfilled

---

Tested on: MS2 coat protein
Assay: apparent KD of MS2 coat protein, switch ON state; designed switch direction (-1 OFF switch, 1 ON switch): -1; higher = weaker reporter binding
Settings: FMN input: 0 or 200 uM; Eterna round: R93 (includes R88 designs)
Could you please report measured apparent KD of MS2 coat protein for the items listed next?
One number for each entry, in nM.

# batch: return apparent KD of MS2 coat protein for each of the 5 sequences below
1. AAAAACUCAGGAUAUACAUGAGGAUCACCCAUGUAAAAAAAAAAAAAGGGAAAAAAAAGUAGAAGGGAGAAAAA [Semenre]
2. AAGAACUCAGGAUAUACAUGAGGAUCACCCAUGUAAAAGAAAGAAGGGAAAGAGAAAAGUAGAAGGGAGAAGAA [Niumateped]
3. AAGACUACAGGAUAUACAUGAGGAUCACCCAUGUAACUGACAAGCAGAGUACGGAGAAGUAGAAGGGUAGUCAA [Ruby 33]
4. AAAAAAGGAGGAUAUACGUACAUGUCAAAAGACGUGAAGGGACAUGAGGAUCACCCAUGUAGAAGGUUUAAAAA [JL Wide Open 31]
5. AAACGUUGAGGAUAUACAAAAGGGUAUAAAUCAAAAAAAACACAUGAGGAUCACCCAUGUAGAAGGCAACGAAA

1: 25.5; 2: 17.5; 3: 20.3; 4: 49.1; 5: 128
